The reported numbers originate from the supplement of paper PMC11061612.

Item-by-item account of Bliss excess
Test system: SNU-61 (Colorectal Carcinoma);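 also: after 72 h of two-drug dosing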
Experiment: Bliss excess, mean over the matrix (fraction); higher = more synergy
Form: value (number only, do not type unit).

CC(=O)c1c(C)c2cnc(Nc3ccc(N4CCNCC4)cn3)nc2n(C2CCCC2)c1=O [Palbociclib] + CN(CC[C@H](CSC1=CC=CC=C1)NC2=C(C=C(C=C2)S(=O)(=O)NC(=O)C3=CC=C(C=C3)N4CCC(CC4)[C@H](C5=CC=CC=C5C6=CC=C(C=C6)Cl)O)S(=O)(=O)C(F)(F)F)CCO [AZD4320] (first compound max 10 µM, 7x7, partner max 1 µM)	-0.0753
COc1nnc2ccc(N3CCC(c4ccc(OCCN5CCN(C)C(=O)[C@H]5C)cc4)CC3)nn12 [AZD5153] + CC1(C)CCC(CN2CCN(c3ccc(C(=O)NS(=O)(=O)c4ccc(NCC5CCOCC5)c([N+](=O)[O-])c4)c(Oc4cnc5[nH]ccc5c4)c3)CC2)=C(c2ccc(Cl)cc2)C1 [Venetoclax] (first compound max 1 µM, 7x7, partner max 1 µM)	-0.0374
CC(=O)c1c(C)c2cnc(Nc3ccc(N4CCNCC4)cn3)nc2n(C2CCCC2)c1=O [Palbociclib] + Cn1cnc2c(F)c(Nc3ccc(Br)cc3Cl)c(C(=O)NOCCO)cc21 [Selumetinib] (first compound max 10 µM, 7x7, partner max 10 µM)	0.0179

The record that follows has no Bliss excess shown yet.
IN: Indicate the recorded Bliss excess value for this compound: CN(C)CCCOc1ccc(-c2ccc3ncc4c(c3c2)n(C2CCOCC2)c(=O)n4C)cn1 [AZD0156] + C[C@@H]1COCCN1C2=NC(=NC(=C2)C3(CC3)[S@](=N)(=O)C)C4=C5C=CNC5=NC=C4 [AZD6738] (first compound max 1 µM, 7x7, partner max 10 µM)
OUT: -0.0047
